Could you please report measured Ki(σ1)/Ki(σ2) for the items listed next?
# Assayed Target: sigma 2 receptor (Rattus norvegicus (Rat), UniProt Q5U3Y7)
# Sequence (Q5U3Y7 whole entry): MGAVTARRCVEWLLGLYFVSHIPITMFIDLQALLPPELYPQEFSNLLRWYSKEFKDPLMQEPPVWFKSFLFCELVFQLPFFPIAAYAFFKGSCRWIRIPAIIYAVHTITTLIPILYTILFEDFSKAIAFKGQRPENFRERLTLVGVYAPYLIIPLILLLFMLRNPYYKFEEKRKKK
# Condition Description: selectivity σ2 over σ1
Output spec: single numeric token, no unit.

Lab note: Clc1cc(Cl)cc(CN2CC[C@@H]3C[C@@H]2c2cc(N4CCOCC4)ccc23)c1 gave Ki(σ1)/Ki(σ2) of 32

Lab note: Cc1cccc(-c2ccc3c(c2)[C@H]2C[C@H]3CCN2C)c1 gave Ki(σ1)/Ki(σ2) of 3

Lab note: CC(C)=CCN1CCN(c2ccc3c(c2)[C@H]2C[C@H]3CCN2C(=O)OCc2ccccc2)CC1 gave Ki(σ1)/Ki(σ2) of 3

Lab note: c1ccc(CN2CC[C@@H]3C[C@@H]2c2cc(N4CCCCC4)ccc23)cc1 gave Ki(σ1)/Ki(σ2) of 8

Lab note: CN1CCN(c2ccc3c(c2)[C@H]2C[C@H]3CCN2C(=O)CCc2ccccc2)CC1 gave Ki(σ1)/Ki(σ2) of 1

Lab note: Cc1cccc(-c2ccc3c(c2)[C@H]2C[C@H]3CCN2Cc2ccc3c(c2)OCO3)c1 gave Ki(σ1)/Ki(σ2) of 6

Lab note: CN1CC[C@@H]2C[C@@H]1c1cc(-c3ccc(C(F)(F)F)cc3)ccc12 gave Ki(σ1)/Ki(σ2) of 4

Lab note: Fc1ccccc1CN1CC[C@@H]2C[C@@H]1c1cc(N3CCOCC3)ccc12 gave Ki(σ1)/Ki(σ2) of 4
